As shown below, each of these compounds has a reported inhibition value.
Target: Nitric oxide synthase 1 (Rattus norvegicus)
Test: Inhibition of rat brain recombinant nNOS at 500 uM to 1 mM
Give me the value, and tack the unit on after it.

[
  {
    "smilesRecord": "O=C(O)c1cccc2cn[nH]c12",
    "valueObserved": "35%"
  },
  {
    "smilesRecord": "c1cc(-c2cnn[nH]2)c2[nH]ncc2c1",
    "valueObserved": "45%"
  },
  {
    "smilesRecord": "C#Cc1cccc2cn[nH]c12",
    "valueObserved": "30%"
  }
]

Give its inhibition value. Item: c1cc(-c2nnn[nH]2)c2[nH]ncc2c1 15%

Same again, this time with O=C(O)c1cccc2c(Br)n[nH]c12 30%

Again, but for NC(=O)c1cccc2c(Br)n[nH]c12 35%

Same for Cn1nc(Br)c2cccc([N+](=O)[O-])c21 40%

* * *

Target: Nitric oxide synthase 1 (Rattus norvegicus, UniProt P29476)
Sequence (P29476 whole entry): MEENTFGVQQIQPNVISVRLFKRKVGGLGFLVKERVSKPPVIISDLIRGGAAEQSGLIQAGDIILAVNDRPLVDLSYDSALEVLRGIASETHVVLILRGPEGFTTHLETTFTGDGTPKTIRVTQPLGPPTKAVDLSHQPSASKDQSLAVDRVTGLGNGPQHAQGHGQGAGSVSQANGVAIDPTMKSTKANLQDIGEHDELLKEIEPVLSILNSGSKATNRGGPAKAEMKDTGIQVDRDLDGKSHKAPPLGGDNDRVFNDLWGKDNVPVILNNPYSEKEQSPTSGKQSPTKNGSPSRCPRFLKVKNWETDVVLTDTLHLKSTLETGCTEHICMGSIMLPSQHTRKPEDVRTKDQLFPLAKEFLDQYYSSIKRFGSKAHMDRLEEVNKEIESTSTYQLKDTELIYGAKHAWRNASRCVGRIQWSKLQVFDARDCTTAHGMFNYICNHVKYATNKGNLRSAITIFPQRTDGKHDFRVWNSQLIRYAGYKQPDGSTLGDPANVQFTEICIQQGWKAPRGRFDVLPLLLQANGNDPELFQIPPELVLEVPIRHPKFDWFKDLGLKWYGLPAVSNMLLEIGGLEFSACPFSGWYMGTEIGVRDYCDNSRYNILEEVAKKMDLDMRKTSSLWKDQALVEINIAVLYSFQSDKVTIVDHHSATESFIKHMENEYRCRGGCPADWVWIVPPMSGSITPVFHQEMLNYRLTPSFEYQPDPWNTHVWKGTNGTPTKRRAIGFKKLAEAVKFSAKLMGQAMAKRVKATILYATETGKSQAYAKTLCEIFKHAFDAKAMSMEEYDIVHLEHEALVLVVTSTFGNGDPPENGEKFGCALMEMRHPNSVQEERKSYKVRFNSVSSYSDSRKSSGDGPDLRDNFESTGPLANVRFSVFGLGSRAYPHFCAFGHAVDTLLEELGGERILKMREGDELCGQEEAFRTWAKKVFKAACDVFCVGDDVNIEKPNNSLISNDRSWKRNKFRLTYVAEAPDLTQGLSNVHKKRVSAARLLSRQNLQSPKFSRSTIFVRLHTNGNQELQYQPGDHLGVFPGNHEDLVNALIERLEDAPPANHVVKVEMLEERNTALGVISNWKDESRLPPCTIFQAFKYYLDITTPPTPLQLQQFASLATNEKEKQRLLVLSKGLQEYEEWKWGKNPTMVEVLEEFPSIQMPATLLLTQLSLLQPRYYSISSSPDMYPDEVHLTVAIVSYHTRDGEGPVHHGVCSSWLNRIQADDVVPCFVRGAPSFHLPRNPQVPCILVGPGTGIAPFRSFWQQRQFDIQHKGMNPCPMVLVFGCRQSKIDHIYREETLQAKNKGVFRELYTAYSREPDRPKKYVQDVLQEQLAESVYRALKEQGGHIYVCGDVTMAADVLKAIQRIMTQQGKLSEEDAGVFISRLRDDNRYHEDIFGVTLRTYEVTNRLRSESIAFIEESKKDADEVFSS
Test: Inhibition of rat brain recombinant nNOS
quantity: pIC50
Lab note: report pIC50 as minus log10 of the concentration in molar units, number only.

[
  {
    "smilesRecord": "Cn1ncc2cccc([N+](=O)[O-])c21",
    "experimentalSystem": "Nitric oxide synthase 1 (Rattus norvegicus, UniProt P29476)",
    "quantity": "pIC50",
    "valueObserved": 3.15
  },
  {
    "smilesRecord": "O=S(=O)(Oc1cccc2cn[nH]c12)C(F)(F)F",
    "experimentalSystem": "Nitric oxide synthase 1 (Rattus norvegicus, UniProt P29476)",
    "quantity": "pIC50",
    "valueObserved": 3.30
  },
  {
    "smilesRecord": "O=[N+]([O-])c1cccc2c(Br)n[nH]c12",
    "experimentalSystem": "Nitric oxide synthase 1 (Rattus norvegicus, UniProt P29476)",
    "quantity": "pIC50",
    "valueObserved": 5.74
  },
  {
    "smilesRecord": "N#Cc1cccc2cn[nH]c12",
    "experimentalSystem": "Nitric oxide synthase 1 (Rattus norvegicus, UniProt P29476)",
    "quantity": "pIC50",
    "valueObserved": 4.60
  }
]

Dear colleague, I am looking for the recorded pIC50 of the following compound: NC(=O)c1cccc2cn[nH]c12 4.26

* * *

Biological target: Nitric oxide synthase, inducible (Mus musculus, UniProt P29477)
Sequence (P29477 whole entry): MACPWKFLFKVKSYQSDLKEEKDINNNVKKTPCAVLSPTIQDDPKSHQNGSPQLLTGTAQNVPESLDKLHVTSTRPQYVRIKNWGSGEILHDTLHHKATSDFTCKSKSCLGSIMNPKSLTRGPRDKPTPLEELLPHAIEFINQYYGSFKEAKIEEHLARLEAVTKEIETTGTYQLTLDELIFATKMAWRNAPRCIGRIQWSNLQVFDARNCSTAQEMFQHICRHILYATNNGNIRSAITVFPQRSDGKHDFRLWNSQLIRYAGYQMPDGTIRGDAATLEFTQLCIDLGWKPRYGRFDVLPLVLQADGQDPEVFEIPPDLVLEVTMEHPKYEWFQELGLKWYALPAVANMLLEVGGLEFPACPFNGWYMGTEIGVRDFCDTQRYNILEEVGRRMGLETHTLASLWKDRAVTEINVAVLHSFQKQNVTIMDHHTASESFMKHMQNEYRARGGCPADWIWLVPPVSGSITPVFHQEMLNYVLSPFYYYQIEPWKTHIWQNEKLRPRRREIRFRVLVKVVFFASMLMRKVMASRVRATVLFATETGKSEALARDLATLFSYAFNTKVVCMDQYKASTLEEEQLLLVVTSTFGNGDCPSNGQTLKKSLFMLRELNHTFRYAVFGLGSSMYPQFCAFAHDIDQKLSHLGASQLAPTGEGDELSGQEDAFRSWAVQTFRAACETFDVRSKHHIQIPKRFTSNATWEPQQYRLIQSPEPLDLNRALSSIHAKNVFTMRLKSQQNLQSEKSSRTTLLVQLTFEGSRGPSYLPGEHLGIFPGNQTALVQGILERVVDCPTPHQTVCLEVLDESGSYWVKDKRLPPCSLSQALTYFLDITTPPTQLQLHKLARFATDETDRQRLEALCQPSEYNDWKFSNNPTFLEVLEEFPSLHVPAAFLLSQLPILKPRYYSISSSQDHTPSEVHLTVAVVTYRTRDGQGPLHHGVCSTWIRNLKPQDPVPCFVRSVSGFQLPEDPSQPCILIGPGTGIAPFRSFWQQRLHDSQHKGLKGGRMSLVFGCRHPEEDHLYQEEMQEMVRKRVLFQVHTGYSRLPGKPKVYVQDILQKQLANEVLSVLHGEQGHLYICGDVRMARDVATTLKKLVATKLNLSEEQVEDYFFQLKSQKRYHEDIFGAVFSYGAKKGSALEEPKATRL
Assay: Inhibition of mouse recombinant iNOS
Entries annotated with measured IC50

Past entries and their recorded results:
[
  {
    "smilesRecord": "Cn1nc(Br)c2cccc([N+](=O)[O-])c21",
    "IC50": "> 500 µM"
  },
  {
    "smilesRecord": "c1cc(-c2cnn[nH]2)c2[nH]ncc2c1",
    "IC50": "> 1000 µM"
  },
  {
    "smilesRecord": "NC(=O)c1cccc2c(Br)n[nH]c12",
    "IC50": "> 1000 µM"
  },
  {
    "smilesRecord": "O=S(=O)(Oc1cccc2cn[nH]c12)C(F)(F)F",
    "IC50": "> 1000 µM"
  }
]

Here is the next item to consider.
Give the measured IC50 of C#Cc1cccc2cn[nH]c12 . > 1000 µM
